molecular target: Glucose-6-phosphate 1-dehydrogenase (Homo sapiens); test: inhibition of Homo sapiens G6PD, dose series – biochemical, fluorescence, selectivity assay for P. falciparum G6PD inhibitor project, dose response (AID 504792); type: functional
Sequence (P11413 whole entry): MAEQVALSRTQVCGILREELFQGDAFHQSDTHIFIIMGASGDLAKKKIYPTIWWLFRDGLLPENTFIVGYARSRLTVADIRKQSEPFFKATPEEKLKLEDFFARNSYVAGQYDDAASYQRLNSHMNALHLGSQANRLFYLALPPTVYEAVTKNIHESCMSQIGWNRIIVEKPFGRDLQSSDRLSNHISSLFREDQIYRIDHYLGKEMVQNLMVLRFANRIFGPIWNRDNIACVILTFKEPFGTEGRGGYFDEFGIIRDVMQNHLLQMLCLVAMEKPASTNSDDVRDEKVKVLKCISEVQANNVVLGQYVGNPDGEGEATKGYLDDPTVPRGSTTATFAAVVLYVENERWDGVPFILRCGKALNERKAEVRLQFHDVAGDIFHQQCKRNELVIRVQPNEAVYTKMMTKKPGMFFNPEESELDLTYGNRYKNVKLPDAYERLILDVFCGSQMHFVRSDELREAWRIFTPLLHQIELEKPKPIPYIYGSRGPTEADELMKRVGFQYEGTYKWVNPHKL
Calls of active or inactive are those of the source. No stated cut-off is given here; in the data, active = IC50 of 20 µM or less and inactive = more.
Outcome codes: label 1 (active), label 0 (inactive)

- Mol smiles: "N#Cc1ccc2sn(-c3ccccc3)c(=O)c2c1"
  Category label: "label 1"
- Mol smiles: "Cc1cc(C)c2sc(NC(=O)C3=COCCO3)nc2c1"
  Category label: "label 0"
- Mol smiles: "COc1cc(Sc2ccc(C)cc2)c(OC)cc1N"
  Category label: "label 0"
- Mol smiles: "COc1cc(/C=C2\\CC/C(=C\\c3cc(OC)c(O)c(OC)c3)C2=O)cc(OC)c1O"
  Category label: "label 0"
